src = PubChem BioAssay

assay protocol: mitochondrial membrane potential change in A549 cells, profiling panel, cell-based, JC-1 fluorescence, basal, 24 h, 100 nL (AID 1138);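 note: A549 lung adenocarcinoma cells under basal conditions with no added stimulus; test concentration not given here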
measurement conditions: higher = more signal
recorded endpoint: z-score

molecule: CN1C(=O)C2C=CC(C(O)C3CC=CCC3)N(Nc3ccccc3)C2C1=O (centres undefined)
reported value: 0.883
--
molecule: COCCOC(=O)N1C(=O)[C@@]2(c3cc(C#CCNC(N)=O)ccc31)[C@H](c1ccc(OCCO)cc1)N1[C@H](c3ccccc3)[C@H](c3ccccc3)OC(=O)[C@H]1[C@@H]2C(=O)Nc1nc2ccccc2s1
reported value: -2.32
--
molecule: COc1cccc([C@@H]2[C@@H](C)CC[C@H]3C(=O)N4[C@H](c5cccc(OC)c5)[C@@H](C)CC[C@H]4C(=O)N23)c1
reported value: 1.55
--
molecule: COc1ccc([Si](C)(C)[C@@H]2[C@@H](CCO)O[C@]3(C(=O)N(Cc4ccccc4)c4ccccc43)[C@H]2C)cc1
reported value: -0.234
--
molecule: CC[C@H]1C2=C3C(CC[C@H]4C(OC)OC[C@](C)([C@@H]34)N(C(=O)OC(C)(C)C)C2)C(CO)C1CO (some centres undefined)
reported value: 1.16
--
molecule: COc1ccc(-c2cc3c(c(-c4ccccc4)n2)[Si](C(C)C)(C(C)C)O[C@H]3c2ccccc2)cn1
reported value: 0.136
--
molecule: O=C1OCC=C[C@H]2OC34C=CCN(Cc5ccccc5)C(=O)[C@H]3N(CCCCCO)C(=O)[C@@H]4[C@@H]12 (some centres undefined)
reported value: 0.0704
--
molecule: O=C1O[C@H](c2ccccc2)[C@H](c2ccccc2)N2[C@H]1[C@@H](C(=O)NC[C@H](O)c1ccccc1)[C@]1(C(=O)Nc3ccc(C#CC4(O)CCCCCC4)cc31)[C@H]2c1ccc(OCCO)cc1
reported value: -1.2
--
molecule: COCCOC(=O)N1C(=O)[C@@]2(c3cc(C#CCCO)ccc31)[C@H](C(=O)N1CCCCCCC1)[C@H]1C(=O)O[C@H](c3ccccc3)[C@H](c3ccccc3)N1[C@@H]2c1ccc(O)cc1
reported value: 1.65
--
molecule: CC1CC/C=C\[C@H]2OC34C=CCN(Cn5nnc6ccccc65)C(=O)[C@H]3N(C(C)CO)C(=O)[C@@H]4C2C(=O)O1 (some centres undefined)
reported value: 0.417
--
molecule: Cc1ccc([C@@H]2CC=C(C(=O)O)[C@H](c3ccccc3)N2S(=O)(=O)c2ccc(C)cc2)cc1
reported value: -1.47
--
molecule: C=C(COC)/C(=C/C[C@H](OC(C)=O)c1ccc(OCCO)cc1)c1cnc2ccccc2c1
reported value: 1.8
--
molecule: COC(=O)c1ccc(C#CC(NP(=O)(c2ccccc2)c2ccccc2)c2ccccc2)cc1 (centres undefined)
reported value: 1.53
--
molecule: C=C(CCCC)/C(=C/C[C@@H](OC(=O)c1ccncc1)c1cccc(OCCO)c1)c1cc(C(=O)OC)ccc1OC
reported value: 4.97

* * *

measured on: Neurogenic locus notch homolog protein 3 (Homo sapiens)
assay protocol: NOTCH3 binders on small-molecule microarray, primary screen, biochemical, 635/667 nm fluorescence (AID 1096)
measurement conditions: NOTCH3 binding, 635 nm fluorescence, higher = more signal
Lab note: anything with composite z-score at or over -0.5 counts as met; the rest go in not met.

compound: COc1ccc(C(=O)Nc2ccc(CN3C(=O)[C@]4(O[C@H](CCn5cc(CCO)nn5)[C@@H]([Si](C)(C)c5ccc(OC)cc5)[C@@H]4C)c4ccccc43)cc2)cc1
label value: met
//
compound: C[C@@H]1CC[C@H]2C(=O)N3CCC[C@H]3C(=O)N2[C@H]1c1ccc(Br)cc1
label value: met
//
compound: CC(C)(C)OC(=O)CC[C@]1(C(=O)NCCN2CCOCC2)N=C(c2ccc(OCCCO)cc2)O[C@H]1c1ccccc1CN=[N+]=[N-]
label value: met
//
compound: COc1ccc([C@H]2C[C@H]3C(Br)=C[C@]2(OC)C(=O)[C@]32CO2)cc1
label value: met
//
compound: CC(C)CN1C(=O)[C@@]2(Cc3ccccc31)c1ccccc1C(=O)N(C1CCCCC1)[C@H]2c1ccc(CO)cc1
label value: not met
//
compound: C=C(CCCC)/C(=C/C[C@H](OC(=O)c1ccncc1)c1cccc(OCCO)c1)c1cc(C(=O)OC)ccc1OC
label value: met
//
compound: O=C1OCC=C[C@H]2OC34C=CCN(Cc5ccccc5)C(=O)[C@H]3N(CCCCCO)C(=O)[C@@H]4[C@@H]12 (stereo partly drawn)
label value: not met
//
compound: C=C(CCCC)C(=O)CC[C@@H](OC(C)=O)c1ccccc1OCCO
label value: not met
